# subject.of.test: EP2 receptor (Homo sapiens)
# Sequence (P35408 whole entry): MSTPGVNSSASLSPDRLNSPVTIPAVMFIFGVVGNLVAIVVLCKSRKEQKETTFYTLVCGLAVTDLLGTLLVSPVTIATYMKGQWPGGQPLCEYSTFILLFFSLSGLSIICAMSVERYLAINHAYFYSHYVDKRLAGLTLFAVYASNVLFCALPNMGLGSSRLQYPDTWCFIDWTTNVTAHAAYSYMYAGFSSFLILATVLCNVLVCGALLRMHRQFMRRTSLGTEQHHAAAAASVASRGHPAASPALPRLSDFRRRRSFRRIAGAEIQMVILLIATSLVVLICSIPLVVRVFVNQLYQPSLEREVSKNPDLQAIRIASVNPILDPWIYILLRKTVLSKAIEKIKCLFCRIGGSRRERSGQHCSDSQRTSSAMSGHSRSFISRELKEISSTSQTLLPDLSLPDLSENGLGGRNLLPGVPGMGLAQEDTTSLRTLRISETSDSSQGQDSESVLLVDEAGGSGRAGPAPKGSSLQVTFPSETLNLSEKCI
# test.details: [3H]PGE2 binding (competition) assay, membranes of COS-M6 cells transfected with EP2
# Design: full-length human EP2 cDNA was isolated; This 1.958 kb cDNA clone encodes a 488-amino acid protein; expressed in transfected cells; host or cells: COS-M6 cells (pcDNAIamp plasmid, DEAE-dextran), 100,000 x g membrane fraction
# conditions.used: read-out: IC50 values in competition assays
outcome.measure: IC50

>>> df
                                   molecule  outcome_measure  measured_result
0  CCCCC[C@H](O)/C=C/[C@H]1[C@H](O)CC(=O)[C@@H]1CCCCCCC(=O)O             IC50             1 nM
